test system: IGROV-1; experiment: NCI tumour cell line growth inhibition, 48 h
The source made the active and inactive calls. Cut-off read from the data, not from the text of the source: active = GI50 up to about 1.1 µM and inactive = higher.
reported-property: GI50

Here are 5 compounds together with their reported answers.
1) O=C(CC1=Nc2nnc(CCCCCCCc3nnc4n3C(=O)C(CC(=O)c3ccc5ccccc5c3)=N4)n2C1=O)c1ccc2ccccc2c1 :: 66.2 µM (inactive)
2) CC(=O)Nc1ccc(NS(=O)(=O)c2ccc3nc(C)n(NS(=O)(=O)c4ccc(NC(C)=O)cc4)c(=O)c3c2)cc1 :: > 100 µM (inactive)
3) Cc1ccc(NC(=O)C(=O)C2NC(=S)NC2=O)c([N+](=O)[O-])c1 (stereo not given) :: > 100 µM (inactive)
4) S=C(Nc1ccc2cn[nH]c2c1)Nc1ccc2cn[nH]c2c1 :: 46.8 µM (inactive)
5) Cn1nc2ccc3nccc(N(CCO)CCO)c3c2n1 :: > 100 µM (inactive)

Data point: C=C1C(=O)OC2C1C(OC(=O)/C(C)=C/C)CC(O)(CCl)C1C(OC(C)=O)C=C(C)C21O (stereo not given) ; GI50 = 14.4 µM (inactive)

Data point: Cc1cc(O)c2c(c1)C(=O)c1c(c(O)cc(O)c1-c1c(O)cc(O)c3c1C(=O)c1cc(C)cc(O)c1C3=O)C2=O [SKYRIN] ; GI50 = 12.9 µM (inactive)

Data point: CC(=O)C(C(C)=O)=C1CCCC(O)O1 (stereo not given) ; GI50 = > 100 µM (inactive)

Data point: "Cc1nc(C)c(C(=O)NNC(=O)C[N+](C)(C)C)cc1C(=O)NNC(=O)C[N+](C)(C)C" ; GI50 = > 100 µM (inactive)

Data point: CCOC1=NC(=O)CC(c2ccccc2)S1 (stereo not given) ; GI50 = > 100 µM (inactive)

----------
Lab note: GI50 readings collected with HCT-15 for the following compounds.

Hey, HCT-15 data for "CC(C)Cc1c(C#N)c(C#N)c(N)n1Cc1ccccc1" : GI50 came out at > 100 µM

Hey, HCT-15 data for CCN1CCC(O)(/C=C/c2ccc(C(C)C)cc2)C(C(=O)/C=C/c2ccc(C(C)C)cc2)C1 (configuration not stated) : GI50 came out at 2 µM

----------
test system: Malme-3M; assay: NCI tumour cell line growth inhibition, 48 h
The source made the active and inactive calls. Cut-off read from the data, not from the text of the source: active = GI50 up to about 1.1 µM and inactive = higher.
Please answer using one outcome listed in class 1 (active), class 0 (inactive)

1. Cc1ccc(Nc2nc3c(s2)C(=O)c2ccccc2C3=O)cc1 :: class 0
2. c1cnc2nc3n(c2c1)CSC3 :: class 0

// param item: "O=c1cc(-c2ccccc2)nc2[nH]ccn12" ; yields the recorded call
class 0

// param item: "O=S(=O)(N/C(=N\O)Nc1ccc(Cl)cc1)c1cc2ccccc2o1" ; yields the recorded call
class 0

// param item: CC(C)[C@@H]1C=C(c2ccccc2)c2ccccc2C1C(C#N)(C#N)C(C)C (stereo partly specified) ; yields the recorded call
class 0

// param item: C=C(Br)C(C)(Cl)CCC(Br)C(C)(C)Cl (stereo unspecified) ; yields the recorded call
class 0

// param item: "CC(C)Cc1c(C#N)c(C#N)c(N)n1Cc1ccccc1" ; yields the recorded call
class 0

// param item: "S=C(Nc1ccc2cn[nH]c2c1)Nc1ccc2cn[nH]c2c1" ; yields the recorded call
class 0

// param item: "CCOC(=O)c1c(N2CCCC2)[nH]c(=O)c(C(c2cccs2)c2c(O)c(C(=O)OCC)c(N3CCCC3)[nH]c2=O)c1O" ; yields the recorded call
class 0

// param item: "CN(C)CCn1c(=O)c2ccc(NCCCN(C)CCCNc3ccc4c(=O)n(CCN(C)C)c(=O)n5c6ccccc6c(=O)c3c45)c3c(=O)c4ccccc4n(c1=O)c23" ; yields the recorded call
class 1

// param item: CC1CCC2(OCCO2)[C@]2(C)CC(O)C(=O)C=C12 (stereo partly specified) ; yields the recorded call
class 0

Source listed as ChEMBL document CHEMBL1201862.
